Cited source: ChEMBL document CHEMBL4689842

System: HEK-293T
protocol.text: Multiplex assay against HEK293T
Assay type: toxicity, cell-based
assay.context: human, 48 h, 10 µM, compound concentration 10 uM, replicate 1
attribute.measured: Population Healthy Nuclei (%)

smiles_notation=C[C@]12CC[C@@H]3c4ccc(O)cc4CC[C@H]3[C@@H]1CC[C@@H]2O attribute_measured="Population Healthy Nuclei (%)" observed_value=56
smiles_notation=CC(C)(C)NC[C@H](O)COc1nsnc1N1CCOCC1 attribute_measured="Population Healthy Nuclei (%)" observed_value=65
smiles_notation=CNC(=O)Nc1ccc(-c2nc(N3CC4CCC(C3)O4)c3cnn(C4CCC5(CC4)OCCO5)c3n2)cc1 attribute_measured="Population Healthy Nuclei (%)" observed_value=8
smiles_notation=CCc1ccc(OCc2ccccc2C(=O)Nc2ccc3nc(C)cc(N)c3c2)cc1.Cl attribute_measured="Population Healthy Nuclei (%)" observed_value=0
smiles_notation=Cc1c[nH]c2nccc(Oc3c(F)cc(Nc4cc(Cl)nc(N)n4)cc3F)c12 attribute_measured="Population Healthy Nuclei (%)" observed_value=34
